Reference for the values: patent US9895349B2

Assay: in vitro
Settings: human
reported-metric: CC50 at 4 days

In one line, give reported CC50 at 4 days of the entry Cc1cc(NC(=O)[C@H]2C[C@@H]3CC[C@H]2N3S(=O)(=O)CC(C)C)ccc1F (racemic) .
> 25 µM

---

Test system: HBV
Experiment: Anti-HBV activity, HepG2.117 inducibly HBV producing cell line (Tet-off), intracellular HBV DNA by realtime PCR
Assay type: cell-based, Hepatitis B virus (HBV)
Conditions: Hepatitis B virus, HepG2.117, 72 h, HepG2.117 cells, 3 days of treatment
reported-metric: log10(EC50) (log10 of the value in nM)
Heads up: the numbers are on a log10 scale; they represent EC50 in nM.

compound="Cc1cc(NC(=O)[C@H]2CCN(S(=O)(=O)NC3CC(=O)N(C)C3)C2)ccc1F (stereo partly shown)" system_tested=HBV reported_metric=log10(EC50) recorded_result=2.66
compound=Cc1cc(NC(=O)[C@@]23C[C@@H]2CN(S(=O)(=O)CC(C)C)C3)ccc1F system_tested=HBV reported_metric=log10(EC50) recorded_result=3.30
compound=CC[C@@H](C)NS(=O)(=O)N1CC[C@H](C(=O)Nc2ccc(F)c(F)c2)C1 system_tested=HBV reported_metric=log10(EC50) recorded_result=2.73
compound=Cc1cc(NC(=O)[C@H]2CCN(S(=O)(=O)C3CCOCC3)C2)ccc1F system_tested=HBV reported_metric=log10(EC50) recorded_result=2.98
compound=Cc1cc(NC(=O)[C@H]2CCN(S(=O)(=O)CC(C)C)C2)ccc1F system_tested=HBV reported_metric=log10(EC50) recorded_result=2.49

Give a short answer stating reported log10(EC50) for Cc1cc(NC(=O)[C@H]2CCN(S(=O)(=O)CC3CC3)C2)ccc1F .
2.52

Assign log10(EC50) to the following record: Cc1cc(NC(=O)[C@H]2CCN(S(=O)(=O)N3CC4(COC4)C3)C2)ccc1F
2.98

Please indicate log10(EC50) recorded for Cc1cc(NC(=O)[C@H]2CCN(S(=O)(=O)N[C@@H]3c4ccccc4C[C@H]3O)C2)ccc1F
2.72

Give the reported value of log10(EC50) for this record: Cc1cc(NC(=O)[C@H]2CCN(S(=O)(=O)C3CCCC3)C2)ccc1F
2.88

Report measured log10(EC50); entry is Cc1cc(NC(=O)[C@H]2CCN(S(=O)(=O)NCC(C)C)C2)ccc1F
2.67

Indicate the recorded log10(EC50) value for this compound: CCC1CC1S(=O)(=O)N1CC[C@H](C(=O)Nc2ccc(F)c(C)c2)C1 (stereo partly shown)
2.52

Consider the compound CC1(NS(=O)(=O)N2CC[C@H](C(=O)Nc3ccc(F)c(F)c3)C2)COC1 . State its measured log10(EC50).
2.62
